Consider the following molecules and their measured logP readings.
assay-text: method code SF, from PMID: 3778562
measured-quantity: logP

[
  {
    "molecule": "O=C1C[C@@H](c2ccc(O)cc2)Oc2cc(O[C@H]3O[C@@H](CO)[C@H](O)[C@@H](O)[C@@H]3O)cc(O)c21",
    "measured-quantity": "logP",
    "quantitative-result": -0.44
  },
  {
    "molecule": "O=C(O[C@H]1Cc2c(O)cc(O)cc2O[C@@H]1c1ccc(O)c(O)c1)c1ccccc1",
    "measured-quantity": "logP",
    "quantitative-result": 3.44
  },
  {
    "molecule": "O=C1C[C@@H](c2ccc(O)c(O)c2)Oc2cccc(O)c21",
    "measured-quantity": "logP",
    "quantitative-result": 2.81
  },
  {
    "molecule": "O=C1C[C@@H](c2ccc(O)c(O)c2)Oc2cc(O)ccc21",
    "measured-quantity": "logP",
    "quantitative-result": 1.94
  },
  {
    "molecule": "O=c1cc(-c2ccc(O)c(O)c2)oc2cc(O)ccc12",
    "measured-quantity": "logP",
    "quantitative-result": 1.94
  },
  {
    "molecule": "Cc1cc(C)c2c(c1)O[C@H](c1ccc(C)c(C)c1)[C@@H](O)C2",
    "measured-quantity": "logP",
    "quantitative-result": 3.1
  },
  {
    "molecule": "O=C(O)CCC(=O)O[C@H]1Cc2c(O)cc(O)cc2O[C@@H]1c1ccc(O)c(O)c1",
    "measured-quantity": "logP",
    "quantitative-result": 1.41
  },
  {
    "molecule": "COc1cc(OC)c2c(c1)OC(c1ccc(OC)c(OC)c1)C(OC)C2 (stereo not drawn)",
    "measured-quantity": "logP",
    "quantitative-result": 3.68
  },
  {
    "molecule": "O=c1c(O)c(-c2ccc(O)cc2)oc2cc(O)cc(O)c12",
    "measured-quantity": "logP",
    "quantitative-result": 3.39
  },
  {
    "molecule": "CCCCO[C@H]1Cc2c(O)cc(O)cc2O[C@@H]1c1ccc(O)c(O)c1",
    "measured-quantity": "logP",
    "quantitative-result": 2.64
  },
  {
    "molecule": "CCCC(=O)O[C@H]1Cc2c(O)cc(O)cc2O[C@@H]1c1ccc(O)c(O)c1",
    "measured-quantity": "logP",
    "quantitative-result": 2.47
  },
  {
    "molecule": "O=c1c(O)c(-c2ccc(O)cc2O)oc2cc(O)cc(O)c12",
    "measured-quantity": "logP",
    "quantitative-result": 2.61
  },
  {
    "molecule": "CCCCCCCCCCCCO[C@H]1Cc2c(O)cc(O)cc2O[C@@H]1c1ccc(O)c(O)c1",
    "measured-quantity": "logP",
    "quantitative-result": 6.79
  },
  {
    "molecule": "O=C(Cc1ccccc1)O[C@H]1Cc2c(O)cc(O)cc2O[C@@H]1c1ccc(O)c(O)c1",
    "measured-quantity": "logP",
    "quantitative-result": 3.09
  },
  {
    "molecule": "Oc1cc(O)c2c(c1)OC(c1ccc(O)c(O)c1)C(OCCCc1ccccc1)C2 (stereo not drawn)",
    "measured-quantity": "logP",
    "quantitative-result": 3.78
  },
  {
    "molecule": "O=C1CC(c2ccc(O)cc2)Oc2cc(O)cc(O)c21 (stereo in doubt)",
    "measured-quantity": "logP",
    "quantitative-result": 2.52
  },
  {
    "molecule": "O=c1cc(-c2ccc(O)cc2)oc2cc(O)cc(O)c12",
    "measured-quantity": "logP",
    "quantitative-result": 3.02
  },
  {
    "molecule": "COc1ccc(-c2cc(=O)c3c(O)cc(O)cc3o2)cc1O",
    "measured-quantity": "logP",
    "quantitative-result": 3.1
  },
  {
    "molecule": "CC(=O)Oc1ccccc1C(=O)OC1Cc2c(O)cc(O)cc2OC1c1ccc(O)c(O)c1 (stereo not drawn)",
    "measured-quantity": "logP",
    "quantitative-result": 2.87
  },
  {
    "molecule": "COc1ccc(-c2oc3ccccc3c(=O)c2O)cc1OC",
    "measured-quantity": "logP",
    "quantitative-result": 4.17
  },
  {
    "molecule": "O=c1c(O)c(-c2ccc(O)c(O)c2)oc2cc(O)ccc12",
    "measured-quantity": "logP",
    "quantitative-result": 2.53
  },
  {
    "molecule": "CCCCCCCCCCCCCCCCO[C@H]1Cc2c(O)cc(O)cc2O[C@@H]1c1ccc(O)c(O)c1",
    "measured-quantity": "logP",
    "quantitative-result": 8.87
  },
  {
    "molecule": "O=c1c(O)c(-c2ccc(O)cc2)oc2cc(O)ccc12",
    "measured-quantity": "logP",
    "quantitative-result": 3.02
  }
]

FYI, the data here is from the SangsterLogP compilation.
